- Tested on: Mouse B16 melanoma cells
- TEST_NAME: Melanin production inhibition test
- Format: cell-based
- TEST_CONDITIONS: 72 h; mouse B16 melanoma cells, three days after addition; minimum non-cytotoxic final concentration at which ratio of melanin amount was 80% or less; read-out: Inhibitory effect on melanin production
Recorded minimal effective concentration values for a group of molecules are listed next.

{"MOLECULE": "Cc1ccnc(-n2nc(C)cc2C)c1 [Compound 40]", "TARGET_OF_ASSAY": "Mouse B16 melanoma cells", "minimal effective concentration": "1 to 10 µg/mL"}
{"MOLECULE": "Cc1cc(C)nc(-n2nc(C)cc2N)n1 [Compound 1]", "TARGET_OF_ASSAY": "Mouse B16 melanoma cells", "minimal effective concentration": "≤ 1 µg/mL"}
{"MOLECULE": "Cc1cc(C)cc(-n2nc(C)cc2C)c1 [Compound 35]", "TARGET_OF_ASSAY": "Mouse B16 melanoma cells", "minimal effective concentration": "≤ 1 µg/mL"}
{"MOLECULE": "Cc1cc(N2CCOCC2)nc(-n2nc(C)c(C)c2C)n1 [Compound 20]", "TARGET_OF_ASSAY": "Mouse B16 melanoma cells", "minimal effective concentration": "≤ 1 µg/mL"}
{"MOLECULE": "Cc1ccnc(-n2nc(C)cc2C)n1 [Compound 22]", "TARGET_OF_ASSAY": "Mouse B16 melanoma cells", "minimal effective concentration": "≤ 1 µg/mL"}
{"MOLECULE": "Cc1cc(C)n(-c2ccccc2)n1 [Compound 33, 1-phenyl-3,5-dimethylpyrazole]", "TARGET_OF_ASSAY": "Mouse B16 melanoma cells", "minimal effective concentration": "1 to 10 µg/mL"}
{"MOLECULE": "Cc1cc(N2CCOCC2)nc(-n2nc(C)cc2C)n1 [Compound 2]", "TARGET_OF_ASSAY": "Mouse B16 melanoma cells", "minimal effective concentration": "≤ 1 µg/mL"}

The reported numbers originate from patent US8563552B2.
